# System: OVCAR-5
# run.description: NCI tumour cell line growth inhibition, 48 h
Activity calls are given as the source filed them. Rule as the data show it: active = GI50 up to about 1.1 µM and inactive = higher.
Lab note: assign the record to one of active, inactive

Problem: How was `O=C(O)CCC/N=C(\C(=N\CCCC(=O)O)c1ccccc1)c1ccccc1` classified in this test?
Solution: inactive

Problem: Please let me know the test result on file for `COc1cc(C(CC(OC)OC)=C(C#N)C#N)cc(OC)c1OC` .
Solution: inactive

Problem: Recorded test outcome, item `Cc1[nH]c(O)nc1C(=O)c1ccc(-n2ccnc2)cc1`
Solution: inactive

Problem: What call does the record list for `CN(C)c1cccc(-c2cc(O)c3cc4c(cc3n2)OCO4)c1` ?
Solution: active

Problem: What outcome does the record of this test show for `CC(/C=C/c1ncccc1OCCCCCC(=O)O)=N\NC1=NCCN1` ?
Solution: inactive

Problem: Given `O=S(=O)(CC#CCS(=O)(=O)c1ccccc1)c1ccccc1` , state the outcome it received in this test.
Solution: inactive

Problem: Dear all, I need the recorded test outcome for COC(=O)C1=Cc2cn(S(=O)(=O)c3ccc(C)cc3)c3cccc(c23)C(C=C(C)C)N1C(C)=O (stereo not drawn) , thank you.
Solution: inactive

Problem: Which outcome was entered for the compound `CCCCCCN(CCCCCC)C1=CC(=O)C(=O)c2ccccc21` in this test?
Solution: inactive

Problem: Please share the test call associated with CC(=O)Nc1ccc2c3c(cc(O)c2c1)N(C(=O)CCCC(=O)N1CC(CCl)c2c1cc(O)c1cc(NC(C)=O)ccc21)CC3CCl (stereo not drawn) .
Solution: active

Problem: # outcome recorded in this test, key = `N#C/C(=C/c1ccsc1)C(=O)c1ccccc1`
Solution: inactive

Problem: Called result for `O[C@@H]1C[C@H]2N3CC[C@@]2(c2cc4c(cc2C3)OCO4)[C@H]2O[C@@H]12`
Solution: inactive

Problem: What was the test verdict on CCOC(=O)C(NC(=O)c1ccccc1)(Nc1cc(C)on1)C(F)(F)F (stereo not drawn) ?
Solution: inactive

Problem: Lab log entry: `COC(OC)c1cccnc1C` — outcome as called in the assay?
Solution: inactive

Problem: Which outcome did this test record for the compound `COC(=O)c1nc(N)nc(O)c1CCCCCc1c(O)nc(N)nc1C(=O)OC` ?
Solution: inactive

Problem: Recorded test outcome, item C[C@H](NC(=O)OC1C2C=CC(O)C1CC2)c1ccccc1 (stereo partly drawn)
Solution: inactive

Problem: I would be grateful if you could indicate the recorded call for COC(=O)C1OC(O[C@H]2CC[C@]3(C)[C@H]4CC=C5[C@@H]6CC(C)(C)CC[C@]6(C(=O)OC)[C@H](O)C[C@@]5(C)[C@]4(C)CC[C@H]3C2(C)C)C(O)C(O)C1O (stereo partly drawn) .
Solution: inactive

Problem: Hey, what did the test say about CCOP(=O)(C[S+](C)[O-])O[C@@H]1C[C@H](C)CC[C@H]1C(C)C (stereo partly drawn) ?
Solution: inactive

Problem: What did this assay record as the result for `CCCCOP(=O)(OCCCC)/C(C#N)=C/c1ccc(C)o1` ?
Solution: inactive

Problem: Kindly provide the recorded test outcome for the following compound: `O=C(N/N=C/C=C/c1ccccc1)c1ccccc1Nc1ccccc1C(=O)N/N=C/C=C/c1ccccc1`
Solution: inactive

Problem: Dear colleague, could you share the recorded outcome for `COc1cc2c(c(OC)c1OC)-c1ccc(SC)c(=O)cc1[C@@H](O)CC2` when you have a moment?
Solution: active

Problem: Answer briefly: the call reported for `CC(C)(C)OC(=O)NCCc1cccc2c1oc1c(CCC(=O)O)cccc12` in this assay.
Solution: inactive

Problem: Record request — test call for `CN(CC(=O)O)Cc1c(O)c(Cl)cc(Cl)c1Cl`
Solution: inactive

Problem: Field: outcome | Entry: `CCOC(=O)c1c(SCc2cc(=O)[nH]c(=O)[nH]2)n(-c2ccccc2)c(=S)n(-c2ccccc2)c1=O`
Solution: inactive

Problem: Can you look up the reported call for `COc1ccc2c(CCNC(=O)/C=C/c3ccccc3)c(C(C)=O)[nH]c2c1[N+](=O)[O-]` for me?
Solution: inactive

Problem: Please indicate how the test categorized `CCOc1ccc2c(c1)[n+]([O-])c(-c1ccc(Br)cc1)c(N)[n+]2[O-]` .
Solution: inactive

Problem: What did the test return for `C=C1C(=O)O[C@@H]2C[C@@]3(C)CCCC(=C)[C@@H]3C[C@H]12.C=C1C(=O)O[C@@H]2C[C@@]3(C)CCC[C@H](C)C3=C[C@H]12` ?
Solution: inactive

Problem: Per the assay record, what outcome was assigned to `Cc1ccc(CSC(=N)Nc2ccccc2)cc1C` ?
Solution: inactive

Problem: Field: outcome | Entry: `COC1=C(OC)C(=O)C(C/C=C/c2c(Cl)nc3sccn23)=C(C)C1=O`
Solution: inactive

Problem: Please indicate how the test categorized `O=[N+]([O-])c1ccccc1OCCOc1ccccc1[N+](=O)[O-]` .
Solution: inactive

Problem: I'd appreciate the recorded outcome for COc1ccc(S(=O)(=O)NC(CCC(=O)NN)C(=O)NN)cc1 (stereo not drawn) from this test.
Solution: inactive

Problem: Returns: the outcome recorded for `COc1c(Cl)c(=O)oc2ccc(Cl)cc12` in this assay.
Solution: inactive

Problem: Give the logged outcome of this assay for the following compound: `NC(=S)Nc1ccc2c(c1)oc1ccccc12`
Solution: inactive

Problem: GET /call?item= CCC(=O)O[C@@H]1C2C(OC(C)=O)C34COC(C)([C@@H]3C3C(C[C@]3(C)OC(C)=O)[C@@H](OC(=O)c3ccccc3)C4=O)[C@H](OC(C)=O)[C@@]2(OC(C)=O)C[C@@H]1C (stereo partly drawn) returns the recorded outcome of this test.
Solution: inactive

Problem: Tell me the recorded outcome of this test for CC(=O)OCC1OC(c2c(OC(C)=O)cc(C)c3c(=O)cc(/C(C(C)=O)=C(\C)O)oc23)C(OC(C)=O)C(OC(C)=O)C1OC(C)=O (stereo not drawn) .
Solution: inactive

Problem: Look up the recorded call for `N#C/C(N)=C(C#N)/N=C/N` in this test.
Solution: inactive

Problem: Per the assay record, what outcome was assigned to COC1CC(OC2C(C)OC(OC3C(C)OC(OC4C(C)OC(O[C@H]5CC[C@@]6(C)C(=CC[C@]7(O)[C@@H]6C[C@@H](OC(=O)/C=C/c6ccccc6)[C@@]6(C)[C@]7(O)CC[C@@]6(O)C(C)=O)C5)CC4OC)CC3OC)CC2OC)OC(C)C1O (stereo partly drawn) ?
Solution: inactive

Problem: Which outcome did this test record for the compound `Cc1ccc(-n2nnc(C#N)c2O)cc1` ?
Solution: inactive

Problem: # outcome recorded in this test, key = `c1ccc(N2N=C3N(c4ccccc4)C2N3c2ccccc2)cc1`
Solution: inactive

----------
# Test system: LOX IMVI
# run.description: NCI tumour cell line growth inhibition, 48 h
Active and inactive are the calls of the source. No stated cut-off is given here; in the data, active = GI50 up to about 1.1 µM and inactive = higher.
Would you mind answering with one of these outcomes? y (active), n (inactive)

Problem: Entry `CN(C)c1ccc(/C=N\N2C(=O)c3ccccc3C2=O)cc1` : call = ?
Solution: n

Problem: Please state the recorded outcome for this compound: CC(C)CCCC(=O)CCCCCCC(=O)CCN(O)C(=O)C(N)CO (configuration not stated)
Solution: n

Problem: Hi, do you know how `Nc1nc(OCC2CCCCC2)c2nc[nH]c2n1` came out in this test?
Solution: n

Problem: For CCCCCCCCCC1CC(=O)NCC(=O)NC(C(C)C)C(=O)NC(CC(C)C)C(=O)NC(C)C(=O)NC(C(C)C)C(=O)O1 (configuration not stated) , which call appears in the assay record?
Solution: n

Problem: Hi, do you know how COc1cccc(C2C3=C(COC3=O)Oc3cc4c(cc32)OCO4)c1 (configuration not stated) came out in this test?
Solution: y

Problem: How did this test come out for S=C1CC(c2ccccc2)Sc2ccccc2N1 (configuration not stated) ?
Solution: n

Problem: Please indicate how the test categorized O=c1nc(Oc2c(F)c(F)c(F)c(F)c2F)ccn1C1OC(CO)C(O)C1O (configuration not stated) .
Solution: n

Problem: Each compound tested received a call. Report the one for O1C2C1C1OC1C1OC1C1OC21 (configuration not stated) .
Solution: n

Problem: Just curious, what result did `O=C(O)c1cc2c3ccccc3nc-2c[nH]1` get here?
Solution: n

Problem: Given `Cc1nc2c(O)cc3c4c(=O)n(C)c(=O)n(C)c4n(Cc4ccccc4)c3c2nc1C` , state the outcome it received in this test.
Solution: n

Problem: Name the outcome recorded for `Cc1cc(=O)oc2cc(O)ccc12` in the assay.
Solution: n

Problem: Hi, do you know how `COc1ccc(OC)c2c1CC(C(=O)O)(C(=O)O)CC2=O` came out in this test?
Solution: n

Problem: Please let me know the test result on file for `CCOC(=O)c1ccc(Nc2cnc3ccc(C(F)(F)F)cc3n2)cc1` .
Solution: n

Problem: Recorded call for CC1=C(C(=O)Nc2ccccc2)C(c2ccc(C)o2)C(C#N)=C(SCc2ccccc2)N1 (configuration not stated) ?
Solution: n

Problem: Lab log entry: `Cc1c(F)c(N)c2c(=O)cc(-c3ccc(NC(=O)[C@@H](N)CCCCN)c(F)c3)oc2c1F` — outcome as called in the assay?
Solution: n

Problem: Answer briefly: the call reported for `CCOC(=O)c1csc(NC(=O)CCN2CCOCC2)n1` in this assay.
Solution: n

Problem: For `CC(=O)O[C@H]1CCn2c3c(c(C)c21)C(=O)C(N1CC1)=C(C)C3=O` , what call appears in the results of this test?
Solution: n

Problem: Which result was noted for this compound in the test: `CC(C)=CCC[C@@H](C)c1c2nc3ccccc3sc-2c(C)c(=O)c1O`
Solution: n

Problem: How was `CCOC(=O)/C(C(=O)c1ccccc1)=C1/NCCN1C` classified in this test?
Solution: n

Problem: # fetch the recorded call for `NC(=S)Nc1ccc2c(c1)oc1ccccc12` here
Solution: n

Problem: # fetch the recorded call for `CCOC(=O)CN1CC(C2=C(O)CN(CC(=O)OCC)C2=O)=CC1=O` here
Solution: n

Problem: Dear colleague, could you share the recorded outcome for `CSC1=N/C(=C\c2ccc(C)cc2)C(=O)N1CN1CCOCC1` when you have a moment?
Solution: n

Problem: Query: recorded result category for COc1cc(C2C3=C(COC3=O)Oc3cc4c(cc32)OCO4)cc(OC)c1OC (configuration not stated) in this test
Solution: y

Problem: Fill in: this test's call for COc1ccc(C2S/C(=C\c3ccc(O)cc3)C(=O)N2NC(=O)Cc2ccccc2)cc1 (configuration not stated) is ___
Solution: n

Problem: Could you check what this test reported for CC(N1CCOCC1)C(O)(c1ccccc1)c1ccccn1 (configuration not stated) ?
Solution: n

Problem: Entry C(=C\c1ccccc1)/COc1ccccc1C(N1CCOCC1)n1nc2ccccc2n1 (configuration not stated) : call = ?
Solution: n

Problem: Tell me the recorded outcome of this test for `O=C(O)CN(c1ccc(F)cc1)S(=O)(=O)c1ccccc1` .
Solution: n

Problem: # lookup: test call for `c1ccc(N2N=C3N(c4ccccc4)C2N3c2ccccc2)cc1`
Solution: n

Problem: Field: outcome | Entry: `COc1ccc2c(c1)OCC1=C2Oc2ccccc2C1`
Solution: n

Problem: Entry `C[Si](C)(C)CNC(=O)OCc1ccccc1` : call = ?
Solution: n

Problem: Dear all, I need the recorded test outcome for `NC(=O)[N+](=CC(=S)Nc1ccccc1Cl)C(N)=O` , thank you.
Solution: n

Problem: Test call for this compound, please: `O=S1(=O)NN=C(NCc2ccc(Cl)cc2)c2ccccc21`
Solution: n

Problem: Could you check what this test reported for `COc1ccc(C(=O)N(C(=S)OCCOc2ccccc2)c2ccccc2)cc1` ?
Solution: n

Problem: Hi team, can someone confirm the assay call for C=C1CC2CC[C@@]34C[C@@H]5O[C@@H]6C(O[C@H]7CC[C@H](CC(=O)OC8[C@@H](C)C9OC%10C[C@]%11(C[C@@H]%12O[C@@]%13(C[C@@H](C)[C@@H]%12O%11)C[C@H](C)[C@@H]%11OC%12CC(C(O)CO)OC%12C[C@@H]%11O%13)OC%10CC9O[C@H]8C[C@H]8O[C@@H](CC[C@@H]1O2)C[C@@H](C)C8=C)O[C@@H]7[C@@H]6O3)C5O4 (some centres not stated) ?
Solution: y

Problem: Just curious, what result did `S=C1NNC(=S)NN1` get here?
Solution: y

Problem: Hey, what did the test say about `CCOC(=O)CCc1cccc2c1oc1c(CCNC(=O)OCC3c4ccccc4-c4ccccc43)cccc12` ?
Solution: n

Problem: Recorded call for `CC1=C(Cl)C[C@@H](/C(C)=C\Cl)O[C@@]1(O)C(Br)Br` ?
Solution: n

Problem: // return assay outcome for CCOC(=O)C1(CC)CCCCC(=O)N1 (configuration not stated)
Solution: n

Problem: Dear all, I need the recorded test outcome for COc1ccc(C(O)CC(O)(C(F)(F)F)C(F)(F)F)cc1 (configuration not stated) , thank you.
Solution: n

Problem: Dear all, I need the recorded test outcome for `C/C(CC(=O)Nc1cc(Cl)c(Cl)cc1Cl)=N\NS(=O)(=O)c1ccc(C)cc1` , thank you.
Solution: n

Problem: I'd appreciate the recorded outcome for C[C@]12Cc3conc3C(O)=C1CC[C@@H]1C2CC[C@@]2(C)C1CC[C@]2(C)O (some centres not stated) from this test.
Solution: n

Problem: How did this test come out for O=NN1C(c2ccccc2)CC(=NO)CC1c1ccccc1 (configuration not stated) ?
Solution: n

Origin of measurements: ChEMBL document CHEMBL1201862
